FYI, the data here is from ChEMBL document CHEMBL1142391.

assay: Cytotoxicity against vincristine-resistant human KB/VJ300 cells; format: functional, cell-based
The reader will find reported IC50 values listed item by item below.

Solved entries (count: 2):
cpd.smiles: COC(=O)N1c2c(ccc3c2OCO3)[C@@]23CCN4C[C@@H]5O[C@@H]5[C@@]5([C@@H](O)[C@@](O)(C(=O)OC)[C@@]12C[C@@H]5O)[C@H]43
value.reported: 25 µg/mL

cpd.smiles: COC(=O)N1c2c(OC)cccc2[C@@]23CCN4C[C@@H]5O[C@@H]5[C@]5(CC[C@]12[C@](O)(C(=O)OC)[C@@H]5O)[C@H]43
value.reported: > 25 µg/mL

Proceeding to the next compound to report its IC50.
Look up and report measured IC50 for this entry: COC(=O)N1c2c(ccc3c2OCO3)[C@@]23CCN4C[C@@H]5O[C@@H]5[C@]5(CC[C@]12[C@](O)(C(=O)OC)[C@@H]5O)[C@H]43
> 25 µg/mL

----------
test: Cytotoxicity against vincristine-resistant human KB/VJ300 cells; format: functional, cell-based
parameter.measured: IC50

Solved entries (count: 2):
cpd.smiles: CCOC(=O)[C@@H]1[C@@H](O)[C@@]23C=CCN4CC[C@@]5(c6ccccc6N[C@]15CC2)[C@@H]43
parameter.measured: IC50
value.reported: > 25 µg/mL
//
cpd.smiles: COC(=O)N1c2c(O)cccc2[C@@]23CCN4C[C@@H]5O[C@@H]5[C@]5(CC[C@]12[C@](O)(C(=O)OC)[C@@H]5O)[C@H]43
parameter.measured: IC50
value.reported: > 25 µg/mL

Look up and report measured IC50 for this entry: COC(=O)N1c2c(ccc(OC)c2O)[C@@]23CCN4C[C@@H]5O[C@@H]5[C@]5(CC[C@]12[C@](O)(C(=O)OC)[C@@H]5O)[C@H]43
> 25 µg/mL
